B1: PPP2R2C (parent)
chain: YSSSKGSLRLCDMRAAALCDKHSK

# Variants of: B1
# method-summary: protein stability index of a GFP-peptide fusion (GPS, HEK-293T) (PSI 1-6); higher = more stable;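 further: lentivirally expressed fusions sorted by FACS into six bins by GFP to DsRed ratio, PSI derived from sequencing read proportions per bin multiplied by bin number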
# test-conditions: c terminus: a fixed tail appended

# mutation-list, protein stability index
measured = [
    ("S4M", 2),
    ("C11N", 3.72),
    ("Y1S", 3.74),
    ("C19I", 2.03),
    ("H22W", 2.05),
    ("G6N", 1.94),
    ("G6S", 1.82),
    ("S2C", 1.92),
    ("L8M", 1.79),
    ("D12N", 2.63),
    ("D12W", 2.7),
    ("L8E", 2.41),
    ("G6V", 2.21),
    ("K5I", 2.19),
    ("L10Y", 2.02),
]
